Target: T1, HLA-A*03:01 (human)
T1 construct: MHC class I monomer first loaded with a UV-sensitive peptide that is cleaved by UV irradiation and exchanged for the test peptide; captured on streptavidin plates; also called peptide-receptive MHC molecules
Experiment: UV-ligand exchange, anti-b2m ELISA; peptide exchange yield grade (>10% +, >20% ++, >50% +++, >75% ++++)
readout: peptide exchange yield

Recorded results for 5 binders are shown here.
| binder | readout | endpoint value |
| --- | --- | --- |
| ALFGNALVFY | peptide exchange yield | > 75% |
| SSLAELIAK | peptide exchange yield | 20 to 50% |
| GGLSSQGVYY | peptide exchange yield | 20 to 50% |
| ALERKFRQK | peptide exchange yield | > 75% |
| PLPRPGAVLK | peptide exchange yield | 20 to 50% |

According to the records, this binder ITAPLMPLGK displays peptide exchange yield of > 75%

For reference, reported peptide exchange yield for VIYVICRHK stands at 50 to 75%
